- System: BT-549 breast
- ASSAY_REMARKS: NCI-60 one-dose screen, 48 h (100 = growth as untreated, 0 = no growth, -100 = all killed)
- TEST_CONDITIONS: 10 µM unless noted
This is part of a sample that, as a whole, favours compounds with a hit. Of some 83,000 tested, about 20% had one in any assay.
READOUT: growth (%)
Response body: numeric value in %, unit text excluded.

Given item CCn1c(=O)c2c(=O)c3c4c(oc3oc2c2ccccc21)C(=O)c1ccccc1C4=O , the value recorded as its growth is 85.1

---

- System: SK-OV-3 ovarian
- ASSAY_REMARKS: NCI-60 one-dose screen, 48 h
- TEST_CONDITIONS: 10 µM unless noted
This is part of a sample that, as a whole, favours compounds with a hit. Of some 83,000 tested, about 20% had one in any assay. Active and inactive are the calls of the source. How the source made its calls: active means growth percent below 10; inactive means the rest.
// allowed return values: true (1) = active, false (0) = inactive

MOLECULE	TGT	CLASS
COc1cc(-n2nc(C(=O)Nc3ccc(C(=O)O)cc3)nc2-c2ccccc2)cc(OC)c1OC	SK-OV-3 ovarian	false (0)
Nc1c(C(=O)Nc2ccccc2)sc2nc3c(cc12)CN(Cc1ccccc1)CC3	SK-OV-3 ovarian	false (0)
CC(=O)N1Cc2ccccc2C(C)Cc2cc(Cl)ccc21 (stereo unspecified)	SK-OV-3 ovarian	false (0)

// next entry
Dear all, I need the recorded test outcome for NS(=O)(=O)c1ccc(NCC(=O)Nc2ccc(-c3nc4ccccc4s3)cc2)cc1 , thank you. false (0)

---

# growth per entry
- Test system: UO-31 renal
- ASSAY_REMARKS: NCI-60 one-dose screen, 48 h (100 = growth as untreated, 0 = no growth, -100 = all killed)
- TEST_CONDITIONS: 10 µM unless noted
This is part of a sample that, as a whole, favours compounds with a hit. Of some 83,000 tested, about 20% had one in any assay.
Response body: numeric value in %, unit text excluded.

>>> print(df.to_string())
                             compound  unit_of_measure  value_measured
0  CCOC(=O)CC(C#N)(CC(=O)OCC)C(=O)OCC                %            96.1

Given item CCN1C(=O)N[C@H]2[C@@H]3NC(=O)c4ccc(Cl)n4[C@@H]3C[C@]21O , the value recorded as its growth is 37.3

Given item Cc1cnc(NC(=O)C(Cc2ccccc2)NC(=O)c2ccccc2)s1 (centres undefined) , the value recorded as its growth is 26.7

Given item CCn1cc(C(=O)O)c(=O)c2cc(F)c(N3CCN(S(=O)(=O)c4cccc5ccccc45)CC3)cc21 , the value recorded as its growth is -19.7

---

# growth per entry
- Test system: ACHN renal
- ASSAY_REMARKS: NCI-60 one-dose screen, 48 h (100 = growth as untreated, 0 = no growth, -100 = all killed)
- TEST_CONDITIONS: 10 µM unless noted
This is part of a sample that, as a whole, favours compounds with a hit. Of some 83,000 tested, about 20% had one in any assay. The source made the active and inactive calls. Rule for the calls: active = growth percent below 10; inactive = the rest.

Here are 5 compounds together with their reported answers.
>>> df
                                   compound  readout    value_measured
0  O=c1cc(C2NCCc3c2[nH]c2ccccc32)c2c(ccc3ccccc32)o1 (configuration not stated)   growth  31.7% (inactive)
1  CCN(Cc1ccc(CN(CC)C(=O)C(Br)Br)cc1)C(=O)C(Br)Br   growth  12.1% (inactive)
2         CCSc1nnc(NC(=O)COc2ccc(Cl)cc2C)s1   growth  96.5% (inactive)
3  COc1cccc(NC(=O)Cn2cc3c(=O)oc4ccccc4c3n2)c1   growth   116% (inactive)
4  CC(C)C(C(=O)CCN(C)C)c1ccc(Cl)cc1 (configuration not stated)   growth   101% (inactive)

Given item C[C@]12CC[C@@H]3c4cc(O)c(O)cc4CC[C@H]3[C@@H]1CC[C@@H]2O , the value recorded as its growth is 42.9% (inactive)

Given item COc1ccc(NC(=O)/N=c2\oc3c(OC)cccc3cc2-c2cc3ccccc3[nH]2)cc1 , the value recorded as its growth is 34.9% (inactive)

Given item COc1cc(OC)cc(-c2n[nH]nc2-c2ccc3c(c2)OCO3)c1 , the value recorded as its growth is 42.7% (inactive)

Given item O=C1OC(c2ccccc2)=N/C1=C\c1ccc([N+](=O)[O-])cc1 , the value recorded as its growth is 102% (inactive)

Given item CC(C)N(Cc1ccc(CN(C(=O)CCl)C(C)C)cc1)C(=O)CCl , the value recorded as its growth is 5.84% (active)

Origin of values: PubChem BioAssay (NCI)
